Listing of entries alongside the reported Mean % WT Binding.
target: human CD33 V56A (human, UniProt P20138 18-364); experiment: alanine scan, flow cytometry;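 note: HEK293-T cells transiently expressing single-residue alanine mutants of CD33 (alanine swapped to serine), antibody binding read by fluorescence in duplicate, background-subtracted, expressed relative to wild-type CD33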
Sequence (P20138 18-364 V56A limits assumed): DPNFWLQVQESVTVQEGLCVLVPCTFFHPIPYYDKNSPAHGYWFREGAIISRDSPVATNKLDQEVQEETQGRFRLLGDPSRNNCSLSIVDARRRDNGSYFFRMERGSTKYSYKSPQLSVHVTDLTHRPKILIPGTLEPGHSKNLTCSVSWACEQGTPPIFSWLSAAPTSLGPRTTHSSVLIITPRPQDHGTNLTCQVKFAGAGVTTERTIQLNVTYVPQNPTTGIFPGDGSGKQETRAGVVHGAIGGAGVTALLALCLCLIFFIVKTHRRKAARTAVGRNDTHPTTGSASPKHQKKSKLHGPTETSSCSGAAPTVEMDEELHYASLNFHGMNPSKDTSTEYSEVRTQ
Provide only the numeric value, understood in % WT.

Refmab #4 (antibody, V domains shown, Full-length format is human IgG1 Fc silent (PG-LALA); The alanine scan used IgG or Fab) VH: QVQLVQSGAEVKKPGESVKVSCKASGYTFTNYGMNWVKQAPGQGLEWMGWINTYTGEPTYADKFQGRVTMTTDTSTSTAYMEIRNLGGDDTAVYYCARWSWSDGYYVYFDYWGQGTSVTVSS VL: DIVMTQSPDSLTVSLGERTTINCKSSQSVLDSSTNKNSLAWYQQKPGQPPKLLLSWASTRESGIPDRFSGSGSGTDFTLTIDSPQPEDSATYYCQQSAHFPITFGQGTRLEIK | 56.8

Form field Mean % WT Binding, entry Refmab #1 (antibody, V domains shown, Full-length format is human IgG1 (Absolute Antibody Ab00283-10.0); The alanine scan used IgG or Fab; also called hP67.6) VH: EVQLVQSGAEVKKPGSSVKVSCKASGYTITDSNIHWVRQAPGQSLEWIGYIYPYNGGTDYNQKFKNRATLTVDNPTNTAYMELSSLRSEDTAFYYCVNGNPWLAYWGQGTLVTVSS VL: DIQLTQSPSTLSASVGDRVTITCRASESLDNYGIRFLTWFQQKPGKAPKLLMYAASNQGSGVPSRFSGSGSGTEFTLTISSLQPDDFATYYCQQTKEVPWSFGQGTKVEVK : 94.3

Value of Mean % WT Binding reported for the binder Refmab #3 (antibody, V domains shown, Full-length format is human IgG1 Fc silent (PG-LALA); The alanine scan used IgG or Fab) VH: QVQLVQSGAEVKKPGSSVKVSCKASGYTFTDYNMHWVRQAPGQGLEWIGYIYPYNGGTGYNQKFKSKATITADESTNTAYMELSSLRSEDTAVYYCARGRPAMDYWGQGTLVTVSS VL: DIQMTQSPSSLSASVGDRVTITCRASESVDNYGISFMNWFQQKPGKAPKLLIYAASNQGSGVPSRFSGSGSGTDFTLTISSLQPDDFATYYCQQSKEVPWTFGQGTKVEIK is 42.6

# Mean % WT Binding of Refmab #2 (antibody, V domains shown, Full-length format is human IgG1 Fc silent (PG-LALA); The alanine scan used IgG or Fab) VH: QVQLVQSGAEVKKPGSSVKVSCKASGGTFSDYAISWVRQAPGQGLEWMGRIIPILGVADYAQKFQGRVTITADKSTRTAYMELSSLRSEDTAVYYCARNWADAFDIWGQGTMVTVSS VL: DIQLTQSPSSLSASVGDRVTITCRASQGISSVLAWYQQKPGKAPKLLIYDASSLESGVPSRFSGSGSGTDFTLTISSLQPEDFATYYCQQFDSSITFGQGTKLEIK = 80.7
